Sequence of the target: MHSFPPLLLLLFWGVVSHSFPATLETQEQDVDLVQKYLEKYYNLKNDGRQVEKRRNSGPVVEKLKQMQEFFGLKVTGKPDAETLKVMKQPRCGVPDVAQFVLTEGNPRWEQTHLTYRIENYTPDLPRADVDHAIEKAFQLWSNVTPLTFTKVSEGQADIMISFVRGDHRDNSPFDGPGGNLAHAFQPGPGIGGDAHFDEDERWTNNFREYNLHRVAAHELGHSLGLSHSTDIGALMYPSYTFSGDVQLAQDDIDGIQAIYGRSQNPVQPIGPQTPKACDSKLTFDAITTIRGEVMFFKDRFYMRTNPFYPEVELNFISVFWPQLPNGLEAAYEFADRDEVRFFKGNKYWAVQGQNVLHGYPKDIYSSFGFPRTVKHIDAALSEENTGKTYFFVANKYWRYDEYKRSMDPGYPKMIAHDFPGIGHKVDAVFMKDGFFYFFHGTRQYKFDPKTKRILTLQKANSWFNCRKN
Ki reference
Readout Kind: Ki (nM)

molecule=O=C(CC1(S(=O)(=O)c2ccc(Oc3ccc(Cl)cc3)cc2)CCOCC1)NO readout_kind=Ki test_value=70
molecule=O=C(CN(Cc1ccc([N+](=O)[O-])cc1)S(=O)(=O)c1ccc(C(F)(F)F)cc1)NO readout_kind=Ki test_value=3
molecule="O=C(NO)C1CCCCN1S(=O)(=O)N1CCC(Oc2ccc(-n3ccnc3)cc2)CC1 (centres undefined)" readout_kind=Ki test_value=224
molecule="O=C(NO)C1CCCCN1S(=O)(=O)N1CCN(c2ccccn2)CC1 (centres undefined)" readout_kind=Ki test_value=423

---

Let's go through some IC50 measurements on Interstitial collagenase (Homo sapiens) together.
Readout Kind: IC50 (nM)

molecule="CC(C)C(NS(=O)(=O)N1CCC(Oc2ccc(Cl)cn2)CC1)C(=O)NO (configuration not stated)" unit_info=nM test_value=360
molecule="CCCCOc1ccc(S(=O)(=O)N2CC(N3CCOCC3)CC2C(=O)NO)cc1 (configuration not stated)" unit_info=nM test_value=920
